Data provenance: patent US20260250420A1

- assay.system: T1, human PTK7 on cells (tumor cells endogenously expressing PTK7); CHO-hPTK7, CHO-S-hPTK7 and 293T-hPTK7 … (human, UniProt Q13308 31-1070)
- T1 construct: whole, on cells; The cell line of each value is named under assay; also called H1299; H358
- T1 sequence (looked up): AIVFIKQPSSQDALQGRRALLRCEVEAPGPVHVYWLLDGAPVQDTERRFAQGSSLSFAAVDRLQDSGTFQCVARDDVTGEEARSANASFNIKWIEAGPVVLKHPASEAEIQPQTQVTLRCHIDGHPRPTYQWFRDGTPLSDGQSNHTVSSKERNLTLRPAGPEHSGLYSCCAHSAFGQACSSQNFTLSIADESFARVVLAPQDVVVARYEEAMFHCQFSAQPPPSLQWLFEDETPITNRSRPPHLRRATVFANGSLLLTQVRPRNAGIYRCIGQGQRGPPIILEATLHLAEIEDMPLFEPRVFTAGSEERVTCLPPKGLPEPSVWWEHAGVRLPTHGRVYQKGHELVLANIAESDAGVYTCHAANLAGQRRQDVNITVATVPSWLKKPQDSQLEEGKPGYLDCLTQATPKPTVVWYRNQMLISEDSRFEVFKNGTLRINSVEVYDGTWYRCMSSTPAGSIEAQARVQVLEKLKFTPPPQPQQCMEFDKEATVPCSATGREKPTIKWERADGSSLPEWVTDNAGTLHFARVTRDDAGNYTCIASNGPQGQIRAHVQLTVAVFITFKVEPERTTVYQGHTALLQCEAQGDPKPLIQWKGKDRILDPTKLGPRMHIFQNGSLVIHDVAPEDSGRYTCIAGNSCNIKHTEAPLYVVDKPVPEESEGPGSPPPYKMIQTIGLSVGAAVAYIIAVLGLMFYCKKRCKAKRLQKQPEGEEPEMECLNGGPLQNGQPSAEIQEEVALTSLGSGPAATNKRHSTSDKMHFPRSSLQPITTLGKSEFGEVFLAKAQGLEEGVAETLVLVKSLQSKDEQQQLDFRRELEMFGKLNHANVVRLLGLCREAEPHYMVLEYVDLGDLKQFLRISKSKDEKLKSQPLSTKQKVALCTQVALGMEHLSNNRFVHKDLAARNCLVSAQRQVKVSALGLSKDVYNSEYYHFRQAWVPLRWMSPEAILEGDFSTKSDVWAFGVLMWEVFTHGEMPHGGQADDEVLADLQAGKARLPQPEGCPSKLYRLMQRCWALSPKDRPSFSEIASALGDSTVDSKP
- experimental.protocol: flow cytometry on H1299 cells endogenously expressing PTK7
Provide the reported EC50 of each item.
Could you kindly put the unit after your number?

stdin: For the binder shown here, 57F4 (anti-human PTK7 murine antibody) (antibody, V domains shown, Murine antibody purified from hybridoma supernatant on Protein A) VH: EVQLVESGGGLVKPGGSRKLSCAASGFTFSDYGMHWVRQAPEKGLEWVAYISSGSSALYYADTVKGRFTISRDNVKNTLFLQMTSLRSEDTAMYYCARRSYYSYFAYWGQGTLVTVSA VL: QIVLTQSPALMAASPGEKVTITCRVSSSISSSTLHWYQQKSETSPKPWIYGTSNLASGVPVRFSGSGSGTSYSLTISSMEAEDAATYYCQQWSSFPFTFGSGTKLEIK , give the reported EC50.
stdout: 0.0875 µg/mL

stdin: Report EC50 for 8H3 (anti-human PTK7 murine antibody) (antibody, V domains shown, Murine antibody purified from hybridoma supernatant on Protein A) VH: EVKLVESGGGLVQPGGSLSLSCAASGFTFTDYYMSWVRQPPGKALEWLALIRNKANGYTTEYSASVKGRFTISRDNSQSILYLQMNALRAEDSATYYCARDSFEVYWGQGTLVTVSA VL: DIVLTQSHKFMSTSVGDRVNITCKASQDVGTAVAWYQQKPGQSPKLLIYWASTRHTGVPDRFTGSGSGTDFTLTIRNVQSEDLADYFCQQFSSFPFTFGGGTKLEIK please.
stdout: 0.21 µg/mL

stdin: For the binder Hu24 (PTK7 control antibody, taken from Hu24 in the Patent CN201580030255) (antibody) chain 1: QVQLVQSGPEVKKPGASVKVSCKASGYTFTDYAVHWVRQAPGKRLEWIGVISTYNDYTYNNQDFKGRVTMTRDTSASTAYMELSRLRSEDTAVYYCARGNSYFYALDYWGQGTSVTVSS chain 2: EIVLTQSPATLSLSPGERATLSCRASESVDSYGKSFMHWYQQKPGQAPRLLIYRASNLESGIPARFSGSGSGTDFTLTISSLEPEDFAVYYCQQSNEDPWTFGGGTKLEIK , what EC50 is on record?
stdout: 0.293 µg/mL

stdin: Data request, read-out EC50, for 101A6 (anti-human PTK7 murine antibody) (antibody, V domains shown, Murine antibody purified from hybridoma supernatant on Protein A) VH: EVKLVESGGGLVQPGGSLSLSCAASGFTFTDYYLSWVRQPPGKALEWLALIRNKANGYTTEYSASVKGRFTISRDSSQSILYLQMDALRAEDSATYYCARDTLAAYWGQGTSVTVSS VL: DIVMTQSHKFMSTSVGDRVSFTCKASQDVGSAVIWYQQKPGQSPKLLIYWASTRHTGVPDRFTGSGSGTDFTLTISNVQSEDLADYFCQQYSSYPLTFGAGTKLEIK
stdout: 0.245 µg/mL
